The origin of these recorded values is PubChem BioAssay (EPA / NIEHS).

Read-out: Vascular cell adhesion molecule 1 (VCAM1), VCAM1 (gene 7412)
Experiment: BSK_LPS_VCAM1: BioMAP Diversity Plus: LPS Assay for Vascular cell adhesion molecule 1 (VCAM1) Biomarker Activity (AID 2283086)
Details: primary human HUVEC with PBMC; actives raise or lower the signal
Active and inactive are the calls of the source. How the source made its calls: active means hit-call score of the fitted dose curve at least 0.9, where 1 is the maximum; inactive means score below 0.9.
Labels: Yes = active, No = inactive

INSERT INTO results (compound, qualitative_label) VALUES
  ('O=Nc1ccc(O)cc1', 'No'),
  ('CCCCC(CC)COCC1CO1 (centres undefined)', 'No'),
  ('O=C(Cl)c1cc(C(=O)Cl)cc(C(=O)Cl)c1', 'Yes'),
  ('c1ccc(-c2ccccn2)nc1', 'No'),
  ('CN1C(=O)N(C)C(O)C1O (centres undefined)', 'No'),
  ('C/C=C\C/C=C/CCCCCCCCOC(C)=O', 'Yes'),
  ('O=C1CCCN1CCO', 'No'),
  ('CC(C)C(=O)C(C)C', 'No'),
  ('c1ccc2c(c1)ccc1cc3c(ccc4ccccc43)cc12', 'No'),
  ('O=C(Nc1ccccc1SSc1ccccc1NC(=O)c1ccccc1)c1ccccc1', 'Yes'),
  ('CC(C)(c1cc(Br)c(OCCO)c(Br)c1)c1cc(Br)c(OCCO)c(Br)c1', 'Yes'),
  ('CC1OC1C1CCC2(C)OC2C1 (centres undefined)', 'No'),
  ('S=C(NC1CCCCC1)NC1CCCCC1', 'No'),
  ('CCO[Si](C)(OCC)OCC', 'No');

====

Assay: ATG_TCF_b_cat_CIS: Attagene CIS-FACTORIAL HepG2 Assay for human T-Cell-Factor with beta-catenin (TCF/b-cat) (AID 2282965)
Details: HepG2 TCF/beta-catenin cis-reporter transcription, actives raise or lower the signal
Active and inactive are the calls of the source. Rule for the calls: active = hit-call score of the fitted dose curve at least 0.9, where 1 is the maximum; inactive = score below 0.9.
Labels: Yes (active), No (inactive)

INSERT INTO measurements (compound, qualitative_label) VALUES
  ('NC(=O)NNC(N)=O', 'No'),
  ('C#CC1(O)CC[C@H]2[C@@H]3CCC4=CCCC[C@@H]4[C@H]3CC[C@@]21C (some centres not stated)', 'Yes'),
  ('Nc1cccc(C(F)(F)F)c1', 'No'),
  ('CC(=O)Nc1nnc(S(N)(=O)=O)s1', 'No'),
  ('CC=CC(F)(F)C(F)(F)C(F)(F)F', 'No'),
  ('CCCCCC/C=C/C=O', 'No'),
  ('O=c1n(CCO)c(=O)n(CCO)c(=O)n1CCO', 'No'),
  ('Nc1ccc(N=Nc2ccccc2)c(N)n1', 'No'),
  ('N=c1ccn2c(n1)O[C@H]1[C@H](O)[C@@H](CO)O[C@H]12', 'No'),
  ('CNC(=S)N(C)C', 'No'),
  ('Cc1cc(C)c(C(=O)O)c(C)c1', 'No'),
  ('COc1ccc([C@@H]2CC(=O)c3c(O)cc(O[C@@H]4O[C@H](CO[C@@H]5O[C@@H](C)[C@H](O)[C@@H](O)[C@H]5O)[C@@H](O)[C@H](O)[C@H]4O)cc3O2)cc1OC', 'No');

====

Molecular target: Transcription factor E2F1 (Homo sapiens) (UniProt Q01094)
Sequence (Q01094 whole entry, looked up): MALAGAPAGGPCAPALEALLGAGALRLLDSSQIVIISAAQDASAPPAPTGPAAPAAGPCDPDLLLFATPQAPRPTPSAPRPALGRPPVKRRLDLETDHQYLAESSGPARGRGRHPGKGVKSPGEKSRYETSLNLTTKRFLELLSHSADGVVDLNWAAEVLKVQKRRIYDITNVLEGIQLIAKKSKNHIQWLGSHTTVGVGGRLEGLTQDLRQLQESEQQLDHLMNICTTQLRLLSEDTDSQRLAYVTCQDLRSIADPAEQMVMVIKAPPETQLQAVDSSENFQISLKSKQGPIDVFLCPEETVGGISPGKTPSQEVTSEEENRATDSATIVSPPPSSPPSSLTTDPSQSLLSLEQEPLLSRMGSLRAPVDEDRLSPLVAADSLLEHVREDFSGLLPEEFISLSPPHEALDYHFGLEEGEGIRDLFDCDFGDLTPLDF
Assay: ATG_E2F_CIS: Attagene CIS-FACTORIAL HepG2 Assay for human E2F Transcription Factor 1 (AID 2282935)
Conditions: HepG2 Attagene cis-reporter, E2F reporter RNA transcripts; actives raise or lower the signal
Active and inactive are the calls of the source. Rule for the calls: active = hit-call score of the fitted dose curve at least 0.9, where 1 is the maximum; inactive = score below 0.9.
Measurement name: outcome

INSERT INTO assay_data (compound, value_reported) VALUES
  ('COCCCOCCCOC', 'inactive'),
  ('CC(=O)OCC(=O)[C@@]12N=C(C)O[C@@H]1C[C@H]1[C@@H]3CCC4=CC(=O)C=C[C@]4(C)[C@H]3[C@@H](O)C[C@@]12C', 'inactive'),
  ('C=CC(=O)OCC(Br)CBr (centres undefined)', 'inactive'),
  ('CC(CC=O)CCCC(C)(C)O (centres undefined)', 'inactive');
